- Test system: Bacillus spizizenii
- assay notes: Antibacterial activity against Bacillus subtilis ATCC 6633 after incubated for 16 to 48 hrs at 28 to 37 degC by spectrofluorometric method
- Type: functional
Numbered stars: 1 amine (or outer) side, 2 acyl side, 3 side chain; on linkers, the order of the positions; unused ones are H or OH. Bridge positions count the residues as written; N and C are the ends. Square brackets hold non-standard residues; d marks the D form. Peptide text beside a SMILES is read from it. I, II: the chains in the order shown. Actinocin(1to9) = Cc1c2oc3c(C)ccc(C(=O)[*:2])c3nc-2c(C(=O)[*:1])c(N)c1=O; Actinocin(9to1) = Cc1c2oc3c(C)ccc(C(=O)[*:1])c3nc-2c(C(=O)[*:2])c(N)c1=O; Pro(5S-Me) = C[C@H]1CC[C@@H](C(=O)O)N1; NMeV = CN[C@H](C(=O)O)C(C)C; Sar = CNCC(=O)O
Task for the reader: assign each of the following molecules its reported MIC.
Reply with just the number (in µg/mL).

*Q* State its MIC on Bacillus spizizenii: Cc1c2oc3c(C)ccc(C(=O)N[C@@H]4C(=O)N[C@H](C(C)C)C(=O)N5CCC[C@H]5C(=O)N(C)CC(=O)N(C)[C@@H](C(C)C)C(=O)O[C@@H]4C)c3nc-2c(C(=O)N[C@@H]2C(=O)N[C@H](C(C)C)C(=O)N3CCC[C@H]3C(=O)N(C)CC(=O)N(C)[C@@H](C(C)C)C(=O)O[C@@H]2C)c(N)c1=O [DACTINOMYCIN] (I: T[dV]P[Sar][NMeV] / II: T[dV]P[Sar][NMeV]; ester I:1-I:C, II:1-II:C; linker I:N-II:N via Actinocin(1to9))
*A* 0.002

*Q* Cc1c2oc3c(C)ccc(C(=O)N[C@@H]4C(=O)N[C@H](C(C)C)C(=O)N5[C@@H](C)CC[C@H]5C(=O)N(C)CC(=O)N(C)[C@@H](C(C)C)C(=O)O[C@@H]4C)c3nc-2c(C(=O)N[C@@H]2C(=O)N[C@H](C(C)C)C(=O)N3[C@@H](C)CC[C@H]3C(=O)N(C)CC(=O)N(C)[C@@H](C(C)C)C(=O)O[C@@H]2C)c(N)c1=O (I: T[dV][Pro(5S-Me)][Sar][NMeV] / II: T[dV][Pro(5S-Me)][Sar][NMeV]; ester I:1-I:C, II:1-II:C; linker I:N-II:N via Actinocin(9to1)) ?
*A* 0.006

*Q* Cc1c2oc3c(C)ccc(C(=O)N[C@@H]4C(=O)N[C@H](C(C)C)C(=O)N5[C@H](C(=O)N(C)CC(=O)N(C)[C@@H](C(C)C)C(=O)O[C@@H]4C)[C@@H](O)C[C@@H]5C)c3nc-2c2c(c1=O)N[C@H]([C@@H]1NC(=O)[C@H](C)N(C)C(=O)CN(C)C(=O)[C@@H]3CC(=O)CN3C(=O)[C@@H](C(C)C)NC1=O)COC2=O ?
*A* 0.59

---

- Test system: Staphylococcus aureus
- assay notes: Antibacterial activity against Staphylococcus aureus ATCC 6538 after incubated for 16 to 48 hrs at 28 to 37 degC by spectrofluorometric method
- Assay type: functional
Numbered stars: 1 amine (or outer) side, 2 acyl side, 3 side chain; on linkers, the order of the positions; unused ones are H or OH. Bridge positions count the residues as written; N and C are the ends. Square brackets hold non-standard residues; d marks the D form. Peptide text beside a SMILES is read from it. I, II: the chains in the order shown. Actinocin(1to9) = Cc1c2oc3c(C)ccc(C(=O)[*:2])c3nc-2c(C(=O)[*:1])c(N)c1=O; NMeV = CN[C@H](C(=O)O)C(C)C; Sar = CNCC(=O)O
recorded endpoint: MIC (µg/mL)
Reply with just the number (in µg/mL).

*Q* Please report the recorded MIC for Cc1c2oc3c(C)ccc(C(=O)N[C@@H]4C(=O)N[C@H](C(C)C)C(=O)N5[C@H](C(=O)N(C)CC(=O)N(C)[C@@H](C(C)C)C(=O)O[C@@H]4C)[C@@H](O)C[C@@H]5C)c3nc-2c2c(c1=O)N[C@H]([C@@H]1NC(=O)[C@H](C)N(C)C(=O)CN(C)C(=O)[C@@H]3CC(=O)CN3C(=O)[C@@H](C(C)C)NC1=O)COC2=O .
*A* 2.37

*Q* Cc1c2oc3c(C)ccc(C(=O)N[C@@H]4C(=O)N[C@H](C(C)C)C(=O)N5CCC[C@H]5C(=O)N(C)CC(=O)N(C)[C@@H](C(C)C)C(=O)O[C@@H]4C)c3nc-2c(C(=O)N[C@@H]2C(=O)N[C@H](C(C)C)C(=O)N3CCC[C@H]3C(=O)N(C)CC(=O)N(C)[C@@H](C(C)C)C(=O)O[C@@H]2C)c(N)c1=O [DACTINOMYCIN] (I: T[dV]P[Sar][NMeV] / II: T[dV]P[Sar][NMeV]; ester I:1-I:C, II:1-II:C; linker I:N-II:N via Actinocin(1to9)) ?
*A* 0.006
